- Target or test system: KRas G12V (Homo sapiens, UniProt P01116, G12V);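 note: KRas binding measured by TR-FRET displacement at room temperature, IC50 fitted from percent of control values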
- Sequence (P01116 1-169 isoform P01116-2 G12V): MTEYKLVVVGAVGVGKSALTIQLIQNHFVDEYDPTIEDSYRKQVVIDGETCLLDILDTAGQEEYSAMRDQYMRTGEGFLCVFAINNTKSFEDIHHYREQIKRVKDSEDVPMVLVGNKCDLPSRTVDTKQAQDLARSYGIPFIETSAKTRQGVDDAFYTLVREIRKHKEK
- Measurement protocol: biochemical
IC50 listing for selected compounds.

[Q] Consider the compound shown here: CCc1c(F)ccc2cc(O)cc(-c3ncc4c(N5CCC[C@]6(CC(=O)N6)C5)nc(OC[C@@]56CCCN5C[C@H](F)C6)nc4c3F)c12 (single isomer, unassigned) What is its recorded IC50?
[A] ≤ 2 nM

[Q] And `CCc1c(F)ccc2cc(O)cc(-c3ncc4c(NCc5ccc6[nH]cnc6c5)nc(OC[C@@]56CCCN5C[C@H](F)C6)nc4c3F)c12` ?
[A] ≤ 2 nM

[Q] Next compound: `CCc1c(F)ccc2cc(O)cc(-c3ncc4c(N5CCCCCCC5)nc(OC[C@@]56CCCN5C[C@H](F)C6)nc4c3F)c12`
[A] ≤ 2 nM

* * *

- Target or test system: KRas Q61H (Homo sapiens, UniProt P01116, Q61H)
- Construct: Biotinylated KRas (corresponding to amino acids 1-169, produced at Accelegan Inc.); biotin (biotinylated); purchased Accelegan Inc
- Sequence (P01116 1-169 isoform P01116-2 Q61H): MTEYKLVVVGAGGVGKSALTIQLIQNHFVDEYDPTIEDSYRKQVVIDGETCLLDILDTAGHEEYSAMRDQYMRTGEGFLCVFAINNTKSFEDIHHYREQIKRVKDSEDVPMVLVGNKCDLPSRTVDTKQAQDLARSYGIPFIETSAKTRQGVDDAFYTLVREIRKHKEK
- Measurement protocol: KRas binding assay (TR-FRET displacement)
Property label: IC50 (nM)

Observe how each entry below is paired with its result.
CS(=O)(=O)C1CCCCN(c2nc(OCC34CCCN3CCC4)nc3c(F)c(-c4cccc5cccc(F)c45)ncc23)C1 (centres unmarked) [Example 250] | 5310
Fc1c(-c2cccc3cccc(F)c23)ncc2c(N3CCCC(c4nc[nH]n4)C3)nc(OCC34CCCN3CCC4)nc12 (centres unmarked) [Example 30] | 2900
Fc1c(-c2cccc3cccc(F)c23)ncc2c(NCCCn3ccnn3)nc(OCC34CCCN3CCC4)nc12 [Example 118] | 14000
Oc1nc(CCCNc2nc(OCC34CCCN3CCC4)nc3c(F)c(-c4cccc5cccc(Cl)c45)ncc23)n[nH]1 [Example 103] | 4940
O=C1CC(CNc2nc(OCC34CCCN3CCC4)nc3c(F)c(-c4cccc5cccc(F)c45)ncc23)C(=O)N1 (centres unmarked) [Example 236] | 4440
O=S1(=O)CCCN1C1CCCN(c2nc(OCC34CCCN3CCC4)nc3c(F)c(-c4cccc5cccc(F)c45)ncc23)C1 (centres unmarked) [Example 239] | 2670
Nc1ncccc1CNc1nc(OCC23CCCN2CCC3)nc2c(F)c(-c3cccc4cccc(F)c34)ncc12 [Example 70] | 10800

P. Cn1cc(CNc2nc(OCC34CCCN3CCC4)nc3c(F)c(-c4cccc5cccc(F)c45)ncc23)ccc1=O [Example 88]
Q. O=S1(=O)NCCC2(CCCN(c3nc(OCC45CCCN4CCC5)nc4c(F)c(-c5cccc6cccc(F)c56)ncc34)C2)N1 (centres unmarked) [Example 247]
R. O=C1CC(CNc2nc(OCC34CCCN3CCC4)nc3c(F)c(-c4cccc5cccc(Cl)c45)ncc23)CN1 (centres unmarked) [Example 102]
S. N#CC1CCCN(c2nc(OCC34CCCN3CCC4)nc3c(F)c(-c4cccc5cccc(F)c45)ncc23)CC1 (centres unmarked) [Example 87]
[Q] Exam item: list the entries in increasing order of IC50. Form entry: ranked labels (order as requested).
[A] R, Q, S, P
(R: 1180 nM, Q: 2060 nM, S: 9500 nM, P: 14700 nM)

* * *

- Test system: pERK in H460 cells
- Measurement protocol: Inhibition of KRas phosphorylation of ERK (Cisbio HTRF pERK assay)
- Measurement setup: Homo sapiens, NCI-H460, read-out: Inhibition (HTRF IC50) of KRas-mediated Phosphorylation of ERK, H460
pIC50: −log10 of the molar value.
Property label: pIC50

These recorded examples may help you get a feel for the data.
CCc1c(F)ccc2cc(O)cc(-c3ncc4c(N5CCCSCC5)nc(OC[C@@]56CCCN5C[C@H](F)C6)nc4c3F)c12 | 6.69
CCc1c(F)ccc2cc(O)cc(-c3ncc4c(N5CCCn6nc(NC)cc6C5)nc(OC[C@@]56CCCN5C[C@H](F)C6)nc4c3F)c12 | 6.43
CCc1c(F)ccc2cc(O)cc(-c3ncc4c(N5CCC[C@@](C)(O)C5)nc(OC[C@@H]5CCCN5C)nc4c3F)c12 | 7.00

P. CCc1c(F)ccc2cc(O)cc(-c3ncc4c(N5CCCn6nc(C(=O)NC)cc6C5)nc(OC[C@@]56CCCN5C[C@H](F)C6)nc4c3F)c12
Q. Oc1cc(-c2ncc3c(N4CCCC5(CC(O)C5)C4)nc(OC[C@@]45CCCN4C[C@H](F)C5)nc3c2F)c2c(Br)c(F)ccc2c1 (stereo partly drawn)
[Q] P or Q : whose pIC50 is greater? In your reply, give the label of the chosen option.
[A] Q

* * *

- Target or test system: KRas G12D (Homo sapiens, UniProt P01116, G12D);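 note: TR-FRET displacement binding assay on KRas, read after a one-hour incubation at room temperature, IC50 fitted from percent-of-control values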
- Sequence (P01116 1-169 isoform P01116-2 G12D): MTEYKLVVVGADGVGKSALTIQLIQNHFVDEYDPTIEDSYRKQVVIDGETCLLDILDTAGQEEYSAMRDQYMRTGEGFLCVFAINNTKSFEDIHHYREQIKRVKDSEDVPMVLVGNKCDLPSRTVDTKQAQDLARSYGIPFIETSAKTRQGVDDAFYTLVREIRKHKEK
- Measurement protocol: biochemical
pIC50: −log10 of the molar value.
Measured pIC50 by item

Some compounds with known pIC50 results, for comparison:
CCc1c(F)ccc2cc(O)cc(-c3ncc4c(N5CCC[C@@](C)(O)C5)nc(OCC5(CN6CCOCC6)CC5)nc4c3F)c12 [Example 332] | ≥ 8.70
Fc1c(-c2cccc3cccc(F)c23)ncc2c(NCCc3ccn[nH]3)nc(OCC34CCCN3CCC4)nc12 [Example 215] | ≤ 4.00
CCc1c(F)ccc2cc(O)cc(-c3ncc4c(N5CCCn6nc(C(=O)N(C)C)c(Cl)c6C5)nc(OC[C@@]56CCCN5C[C@H](F)C6)nc4c3F)c12 [Example 504] | ≥ 8.70

Now for the compound whose pIC50 we want.
[Q] Any idea what its pIC50 is? The compound is Cn1ncc2ccc(Nc3nc(OCC45CCCN4CCC5)nc4c(F)c(-c5cccc6cccc(F)c56)ncc34)cc21 [Example 99]
[A] ≤ 4.00

* * *

- Target or test system: KRas G12R (Homo sapiens, UniProt P01116, G12R)
- Sequence (P01116 1-169 isoform P01116-2 G12R): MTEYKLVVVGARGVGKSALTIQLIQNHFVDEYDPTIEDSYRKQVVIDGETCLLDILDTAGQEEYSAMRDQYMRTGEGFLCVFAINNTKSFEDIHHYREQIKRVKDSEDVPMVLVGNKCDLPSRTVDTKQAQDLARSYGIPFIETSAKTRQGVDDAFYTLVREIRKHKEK
- Measurement protocol: biochemical
Property label: IC50

Would you please look over these solved cases?
CCc1c(F)ccc2cc(O)cc(-c3ncc4c(N5CCCC6(CNC(=O)N6)C5)nc(OC[C@@]56CCCN5C[C@H](F)C6)nc4c3F)c12 (stereo partly drawn) | ≤ 2 nM
C#Cc1c(F)ccc2cc(O)cc(-c3ncc4c(N5CCCC6(CC(O)C6)C5)nc(OC[C@@]56CCCN5C[C@H](F)C6)nc4c3F)c12 (stereo partly drawn) | ≤ 2 nM
CCc1c(F)ccc2cc(O)cc(-c3ncc4c(N5CCC[C@@](C)(O)C5)nc(OC[C@@]56CCCN5[C@H](COC(=O)N5CCOCC5)CC6)nc4c3F)c12 | ≤ 2 nM
CCc1c(F)ccc2cc(O)cc(-c3ncc4c(N5CCC[C@@](C)(O)C5)nc(OCC5(CN6CCCCC6)CC5)nc4c3F)c12 | ≤ 2 nM

[Q] Give the reported IC50 for `CCc1c(F)ccc2cc(O)cc(-c3ncc4c(N5CCCn6nc(C(=O)N(C)CC)cc6C5)nc(OC[C@@]56CCCN5C[C@H](F)C6)nc4c3F)c12` (system: KRas G12R (Homo sapiens, UniProt P01116, G12R)).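 Note: TR-FRET displacement assay of compound binding to KRas, read after one hour at room temperature, potency from a four-parameter fit of percent-of-control values.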
[A] ≤ 2 nM

[Q] Try `Oc1cccc2c1CN(c1nc(OCC34CCCN3CCC4)nc3c(F)c(-c4cccc5cccc(F)c45)ncc13)C2` next.
[A] ≥ 100000 nM

* * *

- Target or test system: KRas Q61H (Homo sapiens, UniProt P01116, Q61H)
- Construct: Biotinylated KRas (corresponding to amino acids 1-169, produced at Accelegan Inc.); biotin (biotinylated); purchased Accelegan Inc
- Measurement protocol: KRas binding assay (TR-FRET displacement);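 note: TR-FRET signal read after one hour at room temperature, IC50 derived by four-parameter fitting of percent-of-control values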
Property label: IC50

# example entries with known answers
C#Cc1c(F)ccc2cc(O)cc(-c3ncc4c(N5CCC[C@@](C)(O)C5)nc(OC[C@@]56CCCN5C[C@H](F)C6)nc4c3F)c12 [Example 13] | ≤ 2 nM
Oc1cccc2c1CN(c1nc(OCC34CCCN3CCC4)nc3c(F)c(-c4cccc5cccc(F)c45)ncc13)C2 [Example 120] | ≥ 100000 nM

Now examine the next entry.
[Q] Please tell me: IC50 of CCc1c(F)ccc2cc(O)cc(-c3ncc4c(N5CCCC6(CC(=O)N6)C5)nc(OC[C@@]56CCCN5C[C@H](F)C6)nc4c3F)c12 (stereo partly drawn) [Example 57] , system KRas Q61H (Homo sapiens, UniProt P01116, Q61H)?
[A] ≤ 2 nM
